Value source: paper PMC4452589

Assay: [11C]GSK1034702 PET brain distribution and kinetics in anaesthetised baboons
Assay type: in vivo, Papio anubis
Details: female, baboon (Papio anubis), frontal cortex, intravenous, Frontal Ctx; Subject A Exam 2; baboon; read-out: Regional V T

>  <compound>
[11CH3]c1cc(F)c2[nH]c(=O)n(C3CCN(C4CCOCC4)CC3)c2c1 [[^11C]GSK1034702]

>  <Kp>
3.73

$$$$

----------
Test: [11C]GSK1034702 PET brain distribution and kinetics in healthy male humans
Type: in vivo
Conditions: human, cerebellum, intravenous, Cerebellum, Subject 4 Scan 1 (baseline), read-out: V T

>  <molecule>
[11CH3]c1cc(F)c2[nH]c(=O)n(C3CCN(C4CCOCC4)CC3)c2c1 [[^11C]GSK1034702]

>  <Kp>
5.17

$$$$
